Values compiled from ChEMBL document CHEMBL1201862.

- System: DMS-273
- Assay Comment: NCI tumour cell line growth inhibition, 48 h
The source made the active and inactive calls. No stated cut-off is given here; in the data, active = GI50 up to about 1.1 µM and inactive = higher.
In this exercise, the only acceptable responses are 1 = active, 0 = inactive

Example entries and their recorded answers appear below.
{"Compound": "COCC1N=C(c2cc(OC)c(OC)c(OC)c2-c2cc3c(cc2[C@@H](C)O)OCO3)O[C@H]1c1ccccc1 (stereo partly specified)", "Category": 0}
{"Compound": "Cc1nc(-n2nc(-c3ccccc3)cc2-c2ccccc2)sc1C(=O)/C=C/c1ccc(Cl)cc1", "Category": 0}
{"Compound": "CCOc1ccccc1NC(=O)CCc1n[nH]c(=S)o1", "Category": 0}
{"Compound": "N#CC12Cc3ccc4c(c3-c3cccc(c31)CCN2C(=O)c1ccccc1)OCO4 (stereo unspecified)", "Category": 0}

Please state the recorded outcome for this compound: CCCCCC1CC=CC(NC(=O)OCc2ccccc2)C1/C=C/CCCC1OCCO1 (stereo unspecified)
0

Please state the recorded outcome for this compound: C[C@H](C(=O)O)C(=O)NC(=O)N(Cc1ccccc1)N=O
0

====

GI50 reference
- Test system: NCI/ADR-RES
- Assay Comment: NCI tumour cell line growth inhibition, 48 h
Calls of active or inactive are those of the source. No stated cut-off is given here; in the data, active = GI50 up to about 1.1 µM and inactive = higher. Where a SMILES comes first, the peptide text is derived from it. The star is where a group is joined. Fmoc = O=C(OCC1c2ccccc2-c2ccccc21)*; OtBu = CC(C)(C)O*

Answered cases to consult:
{"Compound": "CC(O)CCCCC(O)CCC[C@H](O)[C@H]1CCC([C@H]2CCC([C@@H](O)CCCCCCCCCCCCC3=C[C@H](C)OC3=O)O2)O1 (stereo partly drawn)", "Experimental Endpoint": "GI50", "Data Value": "2.44 µM (inactive)"}
{"Compound": "O=C(c1ccccc1)c1ccc2[nH]c(-c3c(Cl)c(Cl)c(Cl)c(Cl)c3C(=O)N/N=C/c3ccc(Cl)cc3)nc2c1", "Experimental Endpoint": "GI50", "Data Value": "47.8 µM (inactive)"}
{"Compound": "c1cc(CSSCc2ccncc2)ccn1", "Experimental Endpoint": "GI50", "Data Value": "30.5 µM (inactive)"}
{"Compound": "NC(CCOCCP(=O)(O)CCOCCC(N)C(=O)O)C(=O)O (stereo not drawn)", "Experimental Endpoint": "GI50", "Data Value": "> 100 µM (inactive)"}

Value lookup for GI50; key = O=c1[nH]nc(-c2cccc([N+](=O)[O-])c2)[nH]1
> 100 µM (inactive)

Value lookup for GI50; key = CN(CCc1ccccn1)c1ccc2c(c1)C(=O)c1ccccc1-2
> 100 µM (inactive)

Value lookup for GI50; key = Cc1cc(C(=O)CSC(=S)SC(C)(C)C)ccc1Cl
19.8 µM (inactive)

Value lookup for GI50; key = COc1ccccc1/C(=N\OCCC(=O)O)c1cccs1
> 100 µM (inactive)

Value lookup for GI50; key = CC(=O)OCc1cc(=O)n2c([nH]c3ccccc32)c1C#N
> 100 µM (inactive)

Value lookup for GI50; key = c1ccc(Nc2nnc(CCCCCCCCc3nnc(Nc4ccccc4)o3)o2)cc1
> 100 µM (inactive)

Value lookup for GI50; key = COc1cc2c(cc1OC)C1=Cc3cc(OC)c(OC)cc3C(C)N1C=C2 (stereo not drawn)
> 100 µM (inactive)

Value lookup for GI50; key = O=C(CC(C(=O)c1ccco1)c1cccs1)c1cccs1 (stereo not drawn)
36.1 µM (inactive)

Value lookup for GI50; key = O=C(c1ccc(O)c([N+](=O)[O-])c1)c1ccc(O)c([N+](=O)[O-])c1
43.6 µM (inactive)

Value lookup for GI50; key = CNC1C(=O)C(C)C(O)(C(CC(C)C(O)/C=C/C=C/CNC(=O)C(C)(C)C(O)\C(C)=C/C=C\C=C\Cc2cnc(C)o2)OC)C12C(=O)OC2C.CNC1C(=O)C(C)C(O)(C(CC(C)C(O)/C=C/C=C/CNC(=O)C(C)(C)C(O)\C(C)=C/C=C\C=C\Cc2cnc(C)o2)OC)C12C(=O)OC2COC (stereo not drawn)
15.9 µM (inactive)

Value lookup for GI50; key = CC(C)C(C/C=C1/CC(CO)(COC(=O)CC(C(C)C)C(C)C)OC1=O)C(C)C (stereo not drawn)
16 µM (inactive)

Value lookup for GI50; key = CC(=O)/C(=C/NC(=S)c1cccnc1)C(=O)Nc1ccccc1C
97.5 µM (inactive)

Value lookup for GI50; key = CC1(C)/C(=N\NC(N)=O)C2CCC1C2 (stereo not drawn)
> 100 µM (inactive)

Value lookup for GI50; key = CC(C)C(NC(=O)OCC1c2ccccc2-c2ccccc21)C(=O)NC(CCC(=O)OC(C)(C)C)C(=O)OC(C)(C)C (stereo not drawn) (Fmoc-Val-Glu(OtBu)-OtBu; configuration not given here)
27 µM (inactive)

====

- Test system: ACHN
- Assay Comment: NCI tumour cell line growth inhibition, 48 h
Active and inactive are the calls of the source. No stated cut-off is given here; in the data, active = GI50 up to about 1.1 µM and inactive = higher.
Experimental Endpoint: GI50

{"Compound": "Cc1ccccc1C(C#N)/C(=N/NC(N)=S)C(=O)Nc1c(C)cccc1C (stereo not drawn)", "Target Desc": "ACHN", "GI50": "> 100 µM (inactive)"}

Value lookup for GI50; key = CCCCCc1cc2cc3c(c(O)c2c(=O)[nH]1)C1(CC3)C(=O)c2c(O)c3c(c(O)c2C1=O)C(=O)C(OC)=CC3=O (stereo not drawn)
0.522 µM (active)

Value lookup for GI50; key = CC1(C)/C(=N\NC(N)=O)C2CCC1C2 (stereo not drawn)
> 100 µM (inactive)

Value lookup for GI50; key = CC1(C)O[C@@H](CP(c2ccc3ccccc3c2)c2ccc3ccccc3c2)[C@H](CP(c2ccc3ccccc3c2)c2ccc3ccccc3c2)O1
> 100 µM (inactive)

====

- System: MOLT-4
- Assay Comment: NCI tumour cell line growth inhibition, 48 h
The source made the active and inactive calls. Rule as the data show it: active = GI50 up to about 1.1 µM and inactive = higher.
In this exercise, the only acceptable responses are active, inactive

{"Compound": "CCOCc1cc(=O)c2c(O)cc3c(c2o1)CCC(C)(C)O3", "Category": "inactive"}
{"Compound": "Cc1cccc2c(N)c3cccc(C(=O)NCC[N+](C)(C)[O-])c3nc12", "Category": "active"}
{"Compound": "CCOC(=O)c1cc(NC(=O)N(CCC#N)CCN(C(=O)N[C@@H](Cc2ccccc2)C(=O)N[C@@H](CC(C)C)C(=O)NC)c2ccccc2)ccc1OC", "Category": "inactive"}
{"Compound": "O=C1OC(CN2CCN(c3ccccc3)CC2)CN1C(=S)Nc1ccccc1 (configuration not stated)", "Category": "inactive"}
{"Compound": "CN(C)[C@H]1CC[C@H]2[C@@H]3CCC4C[C@@H](NC(=O)NC(Cc5ccccc5)c5nccs5)CC[C@]4(C)[C@H]3CC[C@]12C (some centres not stated)", "Category": "active"}

Please state the recorded outcome for this compound: O=C(c1ccc(Cl)cc1)c1cnc(Nc2ccccc2Cl)s1
inactive

Please state the recorded outcome for this compound: O=S(O)c1cc(Cl)cc(Cl)c1OCc1ccccc1
inactive

Please state the recorded outcome for this compound: COc1cc2c(c(OC)c1OC)-c1ccc(SC)c(=O)cc1C(CO)C2 (configuration not stated)
active

Please state the recorded outcome for this compound: COc1ccc(-c2oc3cc(OC)c(OC)c(OC)c3c(=O)c2OC)cc1OC [HEXAMETHOXYFLAVONE]
inactive

Please state the recorded outcome for this compound: CCOC(=O)c1cc(C)nc2c1c(=O)n(-c1ccccc1)c(=O)n2CCCCN1CCN(c2ccccc2)CC1
inactive

Please state the recorded outcome for this compound: CC(C)[C@@H]1NC(=O)[C@H]2N=C(O[C@@H]2C)[C@@H]2CCCN2C(=O)[C@H](Cc2ccccc2)NC(=O)[C@@H]2CSC(=N2)[C@@H](Cc2ccccc2)NC(=O)[C@@H]2CSC1=N2
inactive

Please state the recorded outcome for this compound: COc1cc(OC)cc(-c2nc(O)c3ccccc3n2)c1
inactive

Please state the recorded outcome for this compound: COc1cc2c(cc1OCCCCCOc1cc3c(cc1OC)C(=O)N1CCC[C@H]1C(=O)N3)N=C[C@@H]1CCCN1C2=O
active

Please state the recorded outcome for this compound: CCNC(=O)Nc1cccc(C)n1
inactive

Please state the recorded outcome for this compound: COC(=O)CC(C(C(C)=O)C(=O)OCc1ccccc1)N1C(=O)OCC1c1ccccc1 (configuration not stated)
inactive

Please state the recorded outcome for this compound: C=C1CCC(CC[C@@H]2CC[C@]3(OC2)O[C@@]2(O)CC[C@]3(C)OC2(C)C)C(C)(C)[C@H]1C/C=C1/C(=O)OC[C@@H]1O (some centres not stated)
inactive

Please state the recorded outcome for this compound: COC(=O)c1cc2cc3c(c(O)c2c(=O)o1)O[C@@]1(Oc2c(O)c4c(c(O)c2[C@H]1OC1CC(OC)C(O)C(C)O1)C(=O)C=C(OC)C4=O)[C@H](O)C3 (some centres not stated)
active

====

- Tested on: ACHN
- Assay Comment: NCI tumour cell line growth inhibition, 48 h
Activity calls are given as the source filed them. No stated cut-off is given here; in the data, active = GI50 up to about 1.1 µM and inactive = higher.
GI50 reference

Answered cases to consult:
{"Molecule": "Clc1ccc2c(NCCCC/N=C/c3ccccc3)ccnc2c1", "GI50": "12.5 µM (inactive)"}
{"Molecule": "Nc1ccc(Sc2c3ccccc3nc3ccccc23)cc1", "GI50": "12.3 µM (inactive)"}
{"Molecule": "O=C(c1ccccc1)c1ccc2[nH]c(-c3c(Cl)c(Cl)c(Cl)c(Cl)c3C(=O)N/N=C/c3ccc(Cl)cc3)nc2c1", "GI50": "19.9 µM (inactive)"}
{"Molecule": "CC(=O)C1CCN(c2ccccc2)C1 (stereo unspecified)", "GI50": "> 100 µM (inactive)"}
{"Molecule": "CCN1CCCCC(=N\\O)/C(=N/O)CCCC1", "GI50": "> 100 µM (inactive)"}
{"Molecule": "CC1=NN(c2cccc(Cl)c2)C2(C1=Cc1ccccc1)C(Cl)C(=O)N2c1nc2ccccc2s1 (stereo unspecified)", "GI50": "16.7 µM (inactive)"}
{"Molecule": "CC(=O)Oc1ccc2c(c1OC(C)=O)CCC1C2=CC[C@]2(C)C(=O)CCC12 (stereo partly specified)", "GI50": "11.8 µM (inactive)"}
{"Molecule": "CC(C)(C)OC/C=C(\\Br)CO", "GI50": "> 100 µM (inactive)"}
{"Molecule": "CN(C)/C=N/c1ccc2[nH]c3ccccc3c2c1", "GI50": "48.1 µM (inactive)"}
{"Molecule": "O=CC(O)C(O)C(O)COc1cc(CO)cc2c1C(=O)c1ccccc1C2=O (stereo unspecified)", "GI50": "> 31.6 µM (inactive)"}

Turning now to a further molecule:
Lab note: need GI50 for CCc1nc(N)nc(N)c1-c1ccc(N2CCNCC2)cc1 on ACHN, anyone have it?
51.3 µM (inactive)
